This listing pairs sequences with measured total protein half-life in vivo.
- protocol: total protein half-life in vivo (active degradation + dilution); higher = more stable protein
- setup_conditions: wild type E. coli NCM3722; growth: C-lim chemostat; doubling time 12 h

seq_string: MRFIIRTVMLIALVWIGLLLSGYGVLIGSKENAAGLGLQCTYLTARGTSTVQYLHTKSGFLGITDCPLLRKSNIVVDNG [Q2MB16]
total protein half-life in vivo / h: 14

seq_string: MIIIRYLVRETLKSQLAILFILLLIFFCQKLVRILGAAVDGDIPANLVLSLLGLGVPEMAQLILPLSLFLGLLMTLGKLYTESEITVMHACGLSKAVLVKAAMILAVFTAIVAAVNVMWAGPWSSRHQDEVLAEAKANPGMAALAQGQFQQATNGSSVLFIESVDGSDFKDVFLAQIRPKGNARPSVVVADSGHLTQLRDGSQVVTLNQGTRFEGTALLRDFRITDFQDYQAIIGHQAVALDPNDTDQMDMRTLWNTDTDRARAELNWRITLVFTVFMMALMVVPLSVVNPRQGRVLSMLPAMLLYLLFFLIQTSLKSNGGKGKLDPTLWMWTVNLIYLALAIVLNLWDTVPVRRLRASFSRKGAV [P0AF98]
total protein half-life in vivo / h: 10.4

---

- protocol: total protein half-life in vivo (active degradation + dilution); higher = more stable protein
- setup_conditions: E. coli NCM3722 delta-smpB; growth: N-lim chemostat; doubling time 6 h
Reported total protein half-life in vivo is given for each of the following sequences.

seq_string: MPYKTKSDLPESVKHVLPSHAQDIYKEAFNSAWDQYKDKEDRRDDASREETAHKVAWAAVKHEYAKGDDDKWHKKS [P0AE63]
total protein half-life in vivo [h]: 5.01
//
seq_string: MRKIALILAMLLIPCVSFAGLLGSSSSTTPVSKEYKQQLMGSPVYIQIFKEERTLDLYVKMGEQYQLLDSYKICKYSGGLGPKQRQGDFKSPEGFYSVQRNQLKPDSRYYKAINIGFPNAYDRAHGYEGKYLMIHGDCVSIGCYAMTNQGIDEIFQFVTGALVFGQPSVQVSIYPFRMTDANMKRHKYSNFKDFWEQLKPGYDYFEQTRKPPTVSVVNGRYVVSKPLSHEVVQPQLASNYTLPEAK [P0AA99]
total protein half-life in vivo [h]: 0.689
//
seq_string: MSLFHLIAPSGYCIKQHAALRGIQRLTDAGHQVNNVEVIARRCERFAGTETERLEDLNSLARLTTPNTIVLAVRGGYGASRLLADIDWQALVARQQHDPLLICGHSDFTAIQCGLLAHGNVITFSGPMLVANFGADELNAFTEHHFWLALRNETFTIEWQGEGPTCRAEGTLWGGNLAMLISLIGTPWMPKIENGILVLEDINEHPFRVERMLLQLYHAGILPRQKAIILGSFSGSTPNDYDAGYNLESVYAFLRSRLSIPLITGLDFGHEQRTVTLPLGAHAILNNTREGTQLTISGHPVLKM
total protein half-life in vivo [h]: 3.65
//
seq_string: MILFVGFLLMEIVMPQISRTALVPYSAEQMYQLVNDVQSYPQFLPGCTGSRILESTPGQMTAAVDVSKAGISKTFTTRNQLTSNQSILMNLVDGPFKKLIGGWKFTPLSQEACRIEFHLDFEFTNKLIELAFGRVFKELAANMVQAFTVRAKEVYSAR [P0AGL5]
total protein half-life in vivo [h]: 0.621
//
seq_string: MNKETQPIDRETLLKEANKIIREHEDTLAGIEATGVTQRNGVLVFTGDYFLDEQGLPTAKSTAVFNMFKHLAHVLSEKYHLVD [P0AB61]
total protein half-life in vivo [h]: 2.91
//
seq_string: MRIFVYGSLRHKQGNSHWMTNAQLLGDFSIDNYQLYSLGHYPGAVPGNGTVHGEVYRIDNATLAELDALRTRGGEYARQLIQTPYGSAWMYVYQRPVDGLKLIESGDWLDRDK [P0AE48]
total protein half-life in vivo [h]: 5
//
seq_string: MAMYQNMLVVIDPNQDDQPALRRAVYLHQRIGGKIKAFLPIYDFSYEMTTLLSPDERTAMRQGVISQRTAWIHEQAKYYLNAGVPIEIKVVWHNRPFEAIIQEVISGGHDLVLKMAHQHDRLEAVIFTPTDWHLLRKCPSPVWMVKDQPWPEGGKALVAVNLASEEPYHNALNEKLVKETIELAEQVNHTEVHLVGAYPVTPINIAIELPEFDPSVYNDAIRGQHLLAMKALRQKFGINENMTHVEKGLPEEVIPDLAEHLQAGIVVLGTVGRTGISAAFLGNTAEQVIDHLRCDLLVIKPDQYQTPVELDDEEDD [P0AAC0]
total protein half-life in vivo [h]: 4.47
